Reference source: the NIST ThermoML archive (doi:10.1021/acs.jced.7b00078)

Study conditions: 303.15 K; 101.33 kPa; Liquid; Vibrating tube method
Readout: mass density (kg/m3)
The reply should contain only the number, in kg/m3.

>  <Record smiles>
CSSC

>  <Unit spec>
kg/m3

>  <Readout value>
1051.14

$$$$
>  <Record smiles>
CO

>  <Unit spec>
kg/m3

>  <Readout value>
781.81

$$$$
>  <Record smiles>
CCCO

>  <Unit spec>
kg/m3

>  <Readout value>
795.54

$$$$
>  <Record smiles>
CCO

>  <Unit spec>
kg/m3

>  <Readout value>
780.78

$$$$

Per the record, CCCCO has mass density of 801.92
